// data source = patent US20100215579A1

Assay Method Text: Biodistribution in ICR mice after an iv injection
Format: in vivo
Protocol Conditions: Brain, 2 hr after iv injection
Source text: Biodistribution in ICR Mice After an iv Injection of [^18F][4-(6-{2-[2-(2-Fluoro-ethoxy)-ethoxy]-ethoxy}-naphthalen-2-yl)-phenyl]-methyl-amine in 1% EtOH/0.1% BSA in Water (% dose/organ, avg of 3 mice±SD) (% dose/g, avg of 3 mice±SD) Biodistribution in ICR Mice After an iv Injection of [^18F]19a in 3% EtOH/0.1% BSA in Water Biodistribution in ICR Mice After an iv Injection of [^18F]34a in 5% EtOH/0.1% BSA in Water […]
A collection of compounds and their measured % dose/organ
Use % dose/organ as the unit, but write only the number.

* CNc1ccc(-c2ccc3cc(OCCOCCOCCF)ccc3c2)cc1 | 0.88
* CNc1ccc2cc(-c3ccc(OCCOCCOCC[18F])cc3)ccc2c1 [[^18F]19a] | 0.42
* CNc1ccc(-c2ccc3nc(OCCOCCOCC[18F])ccc3c2)cc1 [[^18F]34a] | 0.85

Then this compound:
Task item: Give the reported % dose/organ for this compound. CN(C)c1ccc(-c2ccc3nc(OCCOCCOCC[18F])ccc3c2)cc1 [[^18F]32a]
Reply: 0.66

###

Assay Method Text: Biodistribution in ICR mice after an iv injection
Assay type: in vivo
Protocol Conditions: Spleen, 2 min after iv injection
Assay Metric: % dose/organ (% dose/organ)
Use % dose/organ as the unit, but write only the number.

Study these solved cases before continuing.
• CN(C)c1ccc(-c2ccc3nc(OCCOCCOCC[18F])ccc3c2)cc1 [[^18F]32a] = 0.51
• CNc1ccc2cc(-c3ccc(OCCOCCOCC[18F])cc3)ccc2c1 [[^18F]19a] = 0.79
• CNc1ccc(-c2ccc3cc(OCCOCCOCCF)ccc3c2)cc1 = 0.47

Then this compound:
Task item: Give the reported % dose/organ for this compound. CNc1ccc(-c2ccc3nc(OCCOCCOCC[18F])ccc3c2)cc1 [[^18F]34a]
Reply: 0.47

###

Assay Method Text: Biodistribution in ICR mice after an iv injection
Assay type: in vivo
Protocol Conditions: Brain, 2 min after iv injection
Assay Metric: % dose/organ
Include the unit right after the number.

• CNc1ccc2cc(-c3ccc(OCCOCCOCC[18F])cc3)ccc2c1 [[^18F]19a] = 2.51 ± 0.29 % dose/organ
• CN(C)c1ccc(-c2ccc3nc(OCCOCCOCC[18F])ccc3c2)cc1 [[^18F]32a] = 3.56 ± 0.47 % dose/organ

Task item: Give the reported % dose/organ for this compound. CNc1ccc(-c2ccc3cc(OCCOCCOCCF)ccc3c2)cc1
Reply: 3.43 ± 0.51 % dose/organ

Task item: Give the reported % dose/organ for this compound. CNc1ccc(-c2ccc3nc(OCCOCCOCC[18F])ccc3c2)cc1 [[^18F]34a]
Reply: 4.61 ± 0.60 % dose/organ

###

Assay Method Text: Biodistribution in ICR mice after an iv injection
Type: in vivo
Protocol Conditions: Bone, 2 hr after iv injection
A collection of molecules and their measured % dose/g
Use % dose/g as the unit, but write only the number.

Study these solved cases before continuing.
* CNc1ccc2cc(-c3ccc(OCCOCCOCC[18F])cc3)ccc2c1 [[^18F]19a] | 1.37
* CNc1ccc(-c2ccc3cc(OCCOCCOCCF)ccc3c2)cc1 | 2.18
* CNc1ccc(-c2ccc3nc(OCCOCCOCC[18F])ccc3c2)cc1 [[^18F]34a] | 2.33

Then this molecule:
Task item: Give the reported % dose/g for this molecule. CN(C)c1ccc(-c2ccc3nc(OCCOCCOCC[18F])ccc3c2)cc1 [[^18F]32a]
Reply: 1.47
